# credit: paper PMC6149664

methodDescription: Isocratic RP-HPLC lipophilicity (k, log k, extrapolated log kw, slope S), MeOH/water mobile phases
Assay type: physicochemical
protocolConditions: MeOH/water 85:15 (v/v)
Label Yes when capacity factor k (RP-HPLC) is strictly below 1; otherwise label No.

Would you please look over these solved cases?
COC(=O)Nc1cccc(C(O)CN2CCN(c3ccccc3F)CC2)c1.Cl (centres unmarked) = Yes
CCCCOC(=O)Nc1ccc(C(O)CN2CCN(c3ccccc3F)CC2)cc1.Cl (centres unmarked) = No
CCCOC(=O)Nc1ccc(C(O)CN2CCN(c3ccccc3F)CC2)cc1.Cl (centres unmarked) = Yes
COC(=O)Nc1ccc(C(O)CN2CCN(c3ccccc3F)CC2)cc1.Cl (centres unmarked) = Yes
CCCCOC(=O)Nc1cccc(C(O)CN2CCN(c3ccccc3F)CC2)c1.Cl (centres unmarked) = No
CCOC(=O)Nc1cccc(C(O)CN2CCN(c3ccccc3F)CC2)c1.Cl (centres unmarked) = Yes

Okay, now this compound:
Strictly below 1 in capacity factor k (RP-HPLC)? CCOC(=O)Nc1ccc(C(O)CN2CCN(c3ccccc3F)CC2)cc1.Cl (centres unmarked)
Yes

----------
Format: physicochemical
Design: key: RM = log(1/Rf - 1), from Rf in HCl/acetone mobile phase
protocolConditions: silica gel plates impregnated with 3% silicone oil in heptane
property: RM (RP-TLC)
Lab note: jot down the number only; don't add units.

In the examples that follow, each entry is paired with its recorded RM (RP-TLC).
CCOC(=O)Nc1ccc(C(O)CN2CCN(c3ccccc3F)CC2)cc1.Cl (stereo not shown) = 0.31
COC(=O)Nc1ccc(C(O)CN2CCN(c3ccccc3F)CC2)cc1.Cl (stereo not shown) = 0.19
CCCOC(=O)Nc1ccc(C(O)CN2CCN(c3ccccc3F)CC2)cc1.Cl (stereo not shown) = 0.58
CCCCOC(=O)Nc1ccc(C(O)CN2CCN(c3ccccc3F)CC2)cc1.Cl (stereo not shown) = 0.83
CCOC(=O)Nc1cccc(C(O)CN2CCN(c3ccccc3F)CC2)c1.Cl (stereo not shown) = -0.03

Quick note, RM (RP-TLC) for COC(=O)Nc1cccc(C(O)CN2CCN(c3ccccc3F)CC2)c1.Cl (stereo not shown) landed at -0.16

Record summary for CCCOC(=O)Nc1cccc(C(O)CN2CCN(c3ccccc3F)CC2)c1.Cl (stereo not shown) : reported RM (RP-TLC) = 0.42

----------
methodDescription: Isocratic RP-HPLC lipophilicity (k, log k, extrapolated log kw, slope S), MeOH/water mobile phases
Format: physicochemical
protocolConditions: MeOH/water 80:20 (v/v)
Measured capacity factor k (RP-HPLC) values are reported for all entries that follow.
No unit in the answer, only the number.

Example compounds with recorded capacity factor k (RP-HPLC):
CCOC(=O)Nc1ccc(C(O)CN2CCN(c3ccccc3F)CC2)cc1.Cl (centres unmarked) [8f] = 1.023
CCCCOC(=O)Nc1cccc(C(O)CN2CCN(c3ccccc3F)CC2)c1.Cl (centres unmarked) [8d] = 1.769
CCCOC(=O)Nc1ccc(C(O)CN2CCN(c3ccccc3F)CC2)cc1.Cl (centres unmarked) [8g] = 1.342

Lookup result for COC(=O)Nc1cccc(C(O)CN2CCN(c3ccccc3F)CC2)c1.Cl (centres unmarked) [8a] ; measured capacity factor k (RP-HPLC): 0.925

Form: compound = CCCOC(=O)Nc1cccc(C(O)CN2CCN(c3ccccc3F)CC2)c1.Cl (centres unmarked) [8c] ; capacity factor k (RP-HPLC) = 1.466

# capacity factor k (RP-HPLC) (compound: CCOC(=O)Nc1cccc(C(O)CN2CCN(c3ccccc3F)CC2)c1.Cl (centres unmarked) [8b] ) is 1.245

Per the record, COC(=O)Nc1ccc(C(O)CN2CCN(c3ccccc3F)CC2)cc1.Cl (centres unmarked) [8e] has capacity factor k (RP-HPLC) of 0.822

The recorded capacity factor k (RP-HPLC) for CCCCOC(=O)Nc1ccc(C(O)CN2CCN(c3ccccc3F)CC2)cc1.Cl (centres unmarked) [8h] is 1.736

----------
S, slope (RP-HPLC) by entry:
methodDescription: Isocratic RP-HPLC lipophilicity (k, log k, extrapolated log kw, slope S), MeOH/water mobile phases
Type: physicochemical
protocolConditions: slope of regression log k vs ϕM; alternative measure of lipophilicity

COC(=O)Nc1cccc(C(O)CN2CCN(c3ccccc3F)CC2)c1.Cl (centres unmarked) [8a] = 3.0678
CCCCOC(=O)Nc1ccc(C(O)CN2CCN(c3ccccc3F)CC2)cc1.Cl (centres unmarked) [8h] = 3.3441
CCCCOC(=O)Nc1cccc(C(O)CN2CCN(c3ccccc3F)CC2)c1.Cl (centres unmarked) [8d] = 3.1641
CCCOC(=O)Nc1ccc(C(O)CN2CCN(c3ccccc3F)CC2)cc1.Cl (centres unmarked) [8g] = 3.0739
CCOC(=O)Nc1ccc(C(O)CN2CCN(c3ccccc3F)CC2)cc1.Cl (centres unmarked) [8f] = 3.1156

Noted for COC(=O)Nc1ccc(C(O)CN2CCN(c3ccccc3F)CC2)cc1.Cl (centres unmarked) [8e] : its S, slope (RP-HPLC) reads 2.7386

Given item CCOC(=O)Nc1cccc(C(O)CN2CCN(c3ccccc3F)CC2)c1.Cl (centres unmarked) [8b] , the value recorded as its S, slope (RP-HPLC) is 3.0529

Sure, the documented S, slope (RP-HPLC) for CCCOC(=O)Nc1cccc(C(O)CN2CCN(c3ccccc3F)CC2)c1.Cl (centres unmarked) [8c] is 3.1244

----------
methodDescription: Isocratic RP-HPLC lipophilicity (k, log k, extrapolated log kw, slope S), MeOH/water mobile phases
Type: physicochemical
protocolConditions: mobile phase MeOH/water 60:40 (v/v)
Simple rule here: log k (RP-HPLC) less than 0.8 is Fulfilled, otherwise Not fulfilled.

A selection of reference data follows.
CCCOC(=O)Nc1cccc(C(O)CN2CCN(c3ccccc3F)CC2)c1.Cl (centres unmarked) = Fulfilled
CCOC(=O)Nc1ccc(C(O)CN2CCN(c3ccccc3F)CC2)cc1.Cl (centres unmarked) = Fulfilled
CCCOC(=O)Nc1ccc(C(O)CN2CCN(c3ccccc3F)CC2)cc1.Cl (centres unmarked) = Fulfilled

Does the reported log k (RP-HPLC) of CCCCOC(=O)Nc1ccc(C(O)CN2CCN(c3ccccc3F)CC2)cc1.Cl (centres unmarked) stay below 0.8?
Not fulfilled

----------
Catalogue of log ε2(Ch-T) readings, one per entry.
methodDescription: UV/Vis spectra of methanolic solutions (log ε)
Format: physicochemical
protocolConditions: methanolic solution c = 3.0 × 10^−5 M; charge-transfer maximum λ2(Ch-T) = 238–240 nm
Lab note: jot down the number only; don't add units.

CCCCOC(=O)Nc1ccc(C(O)CN2CCN(c3ccccc3F)CC2)cc1.Cl (centres unmarked) = 4.42
COC(=O)Nc1cccc(C(O)CN2CCN(c3ccccc3F)CC2)c1.Cl (centres unmarked) = 4.30

For the next question, use this compound.
Measured log ε2(Ch-T) of CCCCOC(=O)Nc1cccc(C(O)CN2CCN(c3ccccc3F)CC2)c1.Cl (centres unmarked) : 4.32

----------
methodDescription: Isocratic RP-HPLC lipophilicity (k, log k, extrapolated log kw, slope S), MeOH/water mobile phases
Format: physicochemical
protocolConditions: MeOH/water 70:30 (v/v)
property: capacity factor k (RP-HPLC)
Give a plain numeric answer without units written out.

CCOC(=O)Nc1cccc(C(O)CN2CCN(c3ccccc3F)CC2)c1.Cl (centres unmarked) = 2.778
COC(=O)Nc1cccc(C(O)CN2CCN(c3ccccc3F)CC2)c1.Cl (centres unmarked) = 1.770
CCCCOC(=O)Nc1ccc(C(O)CN2CCN(c3ccccc3F)CC2)cc1.Cl (centres unmarked) = 4.627
CCCOC(=O)Nc1ccc(C(O)CN2CCN(c3ccccc3F)CC2)cc1.Cl (centres unmarked) = 3.108
COC(=O)Nc1ccc(C(O)CN2CCN(c3ccccc3F)CC2)cc1.Cl (centres unmarked) = 1.456

The reported value for CCOC(=O)Nc1ccc(C(O)CN2CCN(c3ccccc3F)CC2)cc1.Cl (centres unmarked) in terms of capacity factor k (RP-HPLC) is 2.053

The compound CCCOC(=O)Nc1cccc(C(O)CN2CCN(c3ccccc3F)CC2)c1.Cl (centres unmarked) showed capacity factor k (RP-HPLC) equal to 3.561

Entry under test: CCCCOC(=O)Nc1cccc(C(O)CN2CCN(c3ccccc3F)CC2)c1.Cl (centres unmarked) . Its capacity factor k (RP-HPLC) was 5.039

----------
methodDescription: UV/Vis spectra of methanolic solutions (log ε)
Assay type: physicochemical
protocolConditions: methanolic solution c = 3.0 × 10^−5 M; λ3 = 274–276 nm
From the text: Electronic properties of the inspected compounds 8a–h (Table 3) were characterized by logarithms of molar absorption coefficients (log ε) of their methanolic solutions (c = 3.0 × 10^−5 M) investigated in the UV/Vis region of the spectrum. The UV/Vis spectra of methanolic solutions of the analyzed compounds 8a–h (c = 3.0 × 10^−5 M) were estimated on the 8452A Diode Array spectrophotometer HP-8452A (Hewlett Packard, Palo Alto, CA, USA). […]
Items are presented alongside their recorded log ε3.

COC(=O)Nc1ccc(C(O)CN2CCN(c3ccccc3F)CC2)cc1.Cl (centres unmarked) = 3.67
CCCCOC(=O)Nc1ccc(C(O)CN2CCN(c3ccccc3F)CC2)cc1.Cl (centres unmarked) = 3.42
CCOC(=O)Nc1cccc(C(O)CN2CCN(c3ccccc3F)CC2)c1.Cl (centres unmarked) = 3.40
CCCOC(=O)Nc1ccc(C(O)CN2CCN(c3ccccc3F)CC2)cc1.Cl (centres unmarked) = 3.52

Record summary for COC(=O)Nc1cccc(C(O)CN2CCN(c3ccccc3F)CC2)c1.Cl (centres unmarked) : reported log ε3 = 3.45

Measured log ε3, CCCCOC(=O)Nc1cccc(C(O)CN2CCN(c3ccccc3F)CC2)c1.Cl (centres unmarked) : 3.49

According to the records, this compound CCOC(=O)Nc1ccc(C(O)CN2CCN(c3ccccc3F)CC2)cc1.Cl (centres unmarked) displays log ε3 of 3.60

Sure, the documented log ε3 for CCCOC(=O)Nc1cccc(C(O)CN2CCN(c3ccccc3F)CC2)c1.Cl (centres unmarked) is 3.42
